STUDY_TARGET: DNA repair and recombination protein RAD54-like (Homo sapiens) (UniProt Q92698)
Sequence (Q92698 whole entry, looked up): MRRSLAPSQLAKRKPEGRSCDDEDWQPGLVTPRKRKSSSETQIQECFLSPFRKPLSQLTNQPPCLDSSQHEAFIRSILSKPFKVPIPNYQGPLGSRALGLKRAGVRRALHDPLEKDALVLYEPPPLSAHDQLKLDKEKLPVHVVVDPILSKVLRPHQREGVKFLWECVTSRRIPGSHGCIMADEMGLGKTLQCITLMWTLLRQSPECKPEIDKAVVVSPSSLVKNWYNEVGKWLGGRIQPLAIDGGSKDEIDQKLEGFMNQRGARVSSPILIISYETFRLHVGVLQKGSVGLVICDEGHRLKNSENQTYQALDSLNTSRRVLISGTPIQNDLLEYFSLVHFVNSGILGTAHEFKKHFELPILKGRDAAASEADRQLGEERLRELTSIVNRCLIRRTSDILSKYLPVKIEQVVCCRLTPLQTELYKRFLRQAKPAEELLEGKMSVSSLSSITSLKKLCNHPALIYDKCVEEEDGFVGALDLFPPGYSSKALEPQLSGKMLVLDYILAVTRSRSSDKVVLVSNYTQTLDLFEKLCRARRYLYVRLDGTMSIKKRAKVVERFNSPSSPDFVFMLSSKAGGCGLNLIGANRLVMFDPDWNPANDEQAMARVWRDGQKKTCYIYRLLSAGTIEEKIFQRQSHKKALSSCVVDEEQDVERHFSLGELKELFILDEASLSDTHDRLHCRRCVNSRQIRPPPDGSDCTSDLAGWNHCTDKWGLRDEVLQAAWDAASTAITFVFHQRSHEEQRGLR
EXPERIMENT: inhibitors of human RAD54 branch migration, primary screen, biochemical, fluorescence, single point (AID 602329);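 also: 0% = median of neutral control wells and 100% = median of positive control wells; inhibitors cause a drop in the FAM fluorescence signal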
CONDITION_DESCRIPTION: RAD54 Holliday junction branch migration, FAM/BHQ fluorescence; at 10.4 µM
The whole screen tested about 360,000 compounds, of which about 510 (0.14%) were called active.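 The calls were made as follows: active = mean normalized replicate activity at least 40 and at least half of replicates scoring 40 or more; inconclusive = only one of the two criteria met; inactive = mean below 40 and under half of replicates reaching 40.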 The list comes from a sample in which actives are over-represented; it also holds close analogues and randomly drawn compounds.
Write down one outcome, taken from active, inactive

Worked set:
CN1c2ccc(C3=CCCCC3)cc2[C@@H]2[C@@H](CCN2C(=O)Nc2cc(F)ccc2F)[C@@H]1CO	inactive
Cc1cc2oc3ccc(NCCC4CCCN4C)cc3c(=O)c2cc1C (stereo unspecified)	active
CCC(=O)N(C)C[C@H]1Oc2ncc(-c3ccc(C)cc3)cc2C(=O)N([C@@H](C)CO)C[C@@H]1C	inactive
Cc1ccc(S(=O)(=O)N(C)C[C@H]2OCCCC[C@H](C)Oc3ccc(NS(=O)(=O)c4c(C)noc4C)cc3C(=O)N([C@H](C)CO)C[C@@H]2C)cc1	inactive
C[C@H](CO)N1C[C@H](C)[C@@H](CN(C)S(=O)(=O)c2cn(C)cn2)Oc2ccc(N(C)C)cc2CC1=O	inactive
CCC(=O)N(C)C[C@@H]1Oc2cc(C#CCOC)ccc2S(=O)(=O)N([C@@H](C)CO)C[C@@H]1C	inactive

Challenge: Assay result, entry C[C@H](CO)N1C[C@H](C)[C@H](CN(C)C(=O)Nc2ccccc2)Oc2c(NC(=O)Nc3ccc(C(F)(F)F)cc3)cccc2C1=O — outcome?
Response given: inactive

Challenge: Outcome logged for O=C(C[C@H]1CC[C@H]2[C@@H](COC[C@H](O)CN2C(=O)c2ccncc2)O1)NCc1cc(F)cc(F)c1 in this assay:
Response given: inactive

* * *

STUDY_TARGET: DNA repair and recombination protein RAD54-like (Homo sapiens) (UniProt Q92698)
EXPERIMENT: inhibitors of human RAD54 branch migration, primary screen, biochemical, fluorescence, single point (AID 602329);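 also: 0% = median of neutral control wells and 100% = median of positive control wells; inhibitors cause a drop in the FAM fluorescence signal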
CONDITION_DESCRIPTION: RAD54 Holliday junction branch migration, FAM/BHQ fluorescence; at 10.4 µM; active compounds read high
Out of some 360,000 compounds screened, about 510 (0.14%) were called active. Many of the other results were omitted from the sample, so actives are more common in it than they were.
ATTRIBUTE_MEASURED: inhibition (%)
Answers are plain numbers, in %.

Below: 6 compounds and their reported inhibition.
C[C@@H]1CCCCO[C@@H](CN(C)C(=O)c2ccccc2)[C@@H](C)CN([C@@H](C)CO)C(=O)c2cc(NS(=O)(=O)c3ccccc3)ccc2O1	-0.712
CCC(=O)N(C)C[C@H]1Oc2ncc(C#C[C@@H](C)O)cc2C(=O)N([C@@H](C)CO)C[C@H]1C	0.495
Cc1ccc(-n2c(=O)c(C#N)cc3c(=O)n4ccccc4nc32)cc1C	-1.05
Cc1cccn2c(=O)c3cc(C#N)c(=NC(=O)c4cccnc4)n(CC4CCCO4)c3nc12 (stereo not drawn)	-4.7
C[C@H](O)C#Cc1cnc2c(c1)C(=O)N([C@H](C)CO)C[C@@H](C)[C@@H](CN(C)C(=O)Nc1ccc(C(F)(F)F)cc1)O2	-3.33
CO[C@H]1CC[C@H]2CCOc3c(C#N)cccc3C(=O)N(C)CC3(CCCCC3)CC(=O)N(C)C[C@@H]1O2	-12.8

For every record below, what is its inhibition?
1. C/C=C/c1ccc([C@@H]2[C@@H](CO)N(C(=O)CC)[C@H]2CN(C)C(=O)C2CC2)cc1
2. C[C@H]1CN([C@@H](C)CO)C(=O)c2cc(C#CCN(C)C)cnc2O[C@H]1CN(C)C(=O)Cc1ccccc1

Response given:
-7.87
3.35
